Sourced from ChEMBL document CHEMBL1240489

# EXPERIMENT_SUMMARY: Binding affinity to sigma receptor by radioligand displacement assay
REPORTED_METRIC: Ki

Input: // Input: O=C(Cc1ccccc1)NC1CCN(CCCN2C(=O)COc3ccccc32)CC1 . Output its Ki only.
Output: ≥ 1 µM

----------
# TARGET_OR_SYSTEM: UniProtKB P11229
# Sequence (whole entry): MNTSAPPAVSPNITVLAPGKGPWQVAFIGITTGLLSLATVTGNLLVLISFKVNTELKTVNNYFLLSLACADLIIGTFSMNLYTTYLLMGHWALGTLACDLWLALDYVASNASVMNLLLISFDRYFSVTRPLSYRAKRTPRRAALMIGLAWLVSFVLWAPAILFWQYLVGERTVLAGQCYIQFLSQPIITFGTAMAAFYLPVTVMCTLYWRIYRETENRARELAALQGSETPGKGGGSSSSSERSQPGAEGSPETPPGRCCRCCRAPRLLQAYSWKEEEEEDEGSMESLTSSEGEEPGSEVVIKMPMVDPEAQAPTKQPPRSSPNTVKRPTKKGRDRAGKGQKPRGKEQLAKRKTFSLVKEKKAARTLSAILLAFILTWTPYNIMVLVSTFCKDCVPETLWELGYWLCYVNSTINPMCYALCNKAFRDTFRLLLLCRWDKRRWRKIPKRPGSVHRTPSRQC
# EXPERIMENT_SUMMARY: Agonist activity at human muscarinic M1 receptor expressed in CHO-K1 cells assessed as increase of acetylcholine-induced calcium flux by FLIPR assay relative to acetylcholine
# Type: functional, cell-based
REPORTED_METRIC: Emax (%)
Give just the number in %; leave the unit off.

Study these solved cases before continuing.
{"QUERY_SMILES": "O=C(NC1CCN(CCCN2C(=O)COc3ccccc32)CC1)C1CCCC1", "VALUE_UNIT": "%", "RECORDED_RESULT": 41}
{"QUERY_SMILES": "O=C(Cc1ccccc1)NC1CCN(CCCN2C(=O)CCc3cc(F)c(F)cc32)CC1", "VALUE_UNIT": "%", "RECORDED_RESULT": 89}
{"QUERY_SMILES": "CCC(=O)NC1CCN(CCCN2C(=O)CCc3cccc(F)c32)CC1", "VALUE_UNIT": "%", "RECORDED_RESULT": 78}

API: the following record is the query input.
Input: Enter Emax (test system UniProtKB P11229) for CC(=O)NC1CCN(CCCN2C(=O)CCc3cc(F)c(F)cc32)CC1
Output: 76

----------
# TARGET_OR_SYSTEM: UniProt Q9Y2I1
# Sequence (Q9Y2I1 whole entry): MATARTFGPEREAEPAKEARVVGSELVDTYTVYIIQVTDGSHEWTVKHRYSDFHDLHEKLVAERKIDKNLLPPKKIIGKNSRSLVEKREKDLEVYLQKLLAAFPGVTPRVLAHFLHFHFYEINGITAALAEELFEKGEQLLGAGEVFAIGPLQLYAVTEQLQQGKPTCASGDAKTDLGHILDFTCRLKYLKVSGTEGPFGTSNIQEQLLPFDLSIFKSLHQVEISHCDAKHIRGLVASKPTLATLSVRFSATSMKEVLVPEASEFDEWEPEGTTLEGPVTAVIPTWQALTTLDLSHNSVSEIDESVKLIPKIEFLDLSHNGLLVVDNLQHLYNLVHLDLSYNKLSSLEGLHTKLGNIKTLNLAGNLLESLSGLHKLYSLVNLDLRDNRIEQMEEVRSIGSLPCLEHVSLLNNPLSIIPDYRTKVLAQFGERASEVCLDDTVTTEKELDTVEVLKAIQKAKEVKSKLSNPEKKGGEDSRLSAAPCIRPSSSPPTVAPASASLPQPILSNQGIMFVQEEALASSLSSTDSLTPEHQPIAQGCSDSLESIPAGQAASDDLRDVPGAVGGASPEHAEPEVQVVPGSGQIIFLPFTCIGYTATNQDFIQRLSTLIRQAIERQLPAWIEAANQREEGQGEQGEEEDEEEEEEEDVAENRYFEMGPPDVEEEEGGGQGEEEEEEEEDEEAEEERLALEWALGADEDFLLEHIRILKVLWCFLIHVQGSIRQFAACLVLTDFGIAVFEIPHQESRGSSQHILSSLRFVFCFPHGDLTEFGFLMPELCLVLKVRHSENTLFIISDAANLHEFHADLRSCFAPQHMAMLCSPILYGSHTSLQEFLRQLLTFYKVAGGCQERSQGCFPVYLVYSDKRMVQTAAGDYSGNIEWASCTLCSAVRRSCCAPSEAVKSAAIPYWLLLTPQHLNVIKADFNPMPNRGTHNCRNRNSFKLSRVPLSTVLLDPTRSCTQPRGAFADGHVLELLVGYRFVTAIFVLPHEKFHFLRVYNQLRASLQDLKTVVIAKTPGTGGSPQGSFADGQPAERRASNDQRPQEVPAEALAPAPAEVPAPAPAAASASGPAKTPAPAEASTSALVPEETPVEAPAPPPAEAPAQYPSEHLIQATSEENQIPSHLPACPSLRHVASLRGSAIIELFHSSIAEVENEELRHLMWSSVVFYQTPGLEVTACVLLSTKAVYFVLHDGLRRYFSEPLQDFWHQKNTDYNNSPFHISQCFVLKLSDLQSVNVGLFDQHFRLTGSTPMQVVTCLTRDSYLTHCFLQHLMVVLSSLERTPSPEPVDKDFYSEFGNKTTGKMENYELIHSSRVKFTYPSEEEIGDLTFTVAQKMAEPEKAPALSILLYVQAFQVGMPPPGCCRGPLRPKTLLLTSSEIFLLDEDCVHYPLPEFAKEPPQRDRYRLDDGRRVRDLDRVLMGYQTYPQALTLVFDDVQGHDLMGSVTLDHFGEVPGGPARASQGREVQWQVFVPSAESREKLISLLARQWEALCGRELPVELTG
pKi: −log10 of the molar value.
REPORTED_METRIC: pKi

Input: Enter pKi (test system UniProt Q9Y2I1) for O=C(Cc1ccccc1)NC1CCN(CCCN2C(=O)COc3ccccc32)CC1
Output: ≤ 6.00

----------
# TARGET_OR_SYSTEM: 5-hydroxytryptamine receptor 2B (Homo sapiens, UniProt P41595)
# Sequence (P41595 whole entry): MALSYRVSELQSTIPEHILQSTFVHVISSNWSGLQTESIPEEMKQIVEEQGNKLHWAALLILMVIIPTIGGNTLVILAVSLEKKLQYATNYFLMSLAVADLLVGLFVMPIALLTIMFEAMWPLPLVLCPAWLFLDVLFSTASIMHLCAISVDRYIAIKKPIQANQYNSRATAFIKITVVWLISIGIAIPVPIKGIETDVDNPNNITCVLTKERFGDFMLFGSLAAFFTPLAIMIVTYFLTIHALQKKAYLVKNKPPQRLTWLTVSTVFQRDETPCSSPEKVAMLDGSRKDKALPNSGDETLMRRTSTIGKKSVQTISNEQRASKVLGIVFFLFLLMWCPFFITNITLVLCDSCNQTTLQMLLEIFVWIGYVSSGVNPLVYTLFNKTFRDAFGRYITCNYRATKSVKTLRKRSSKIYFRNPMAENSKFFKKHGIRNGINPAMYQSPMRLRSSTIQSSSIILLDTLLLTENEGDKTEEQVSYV
# EXPERIMENT_SUMMARY: Binding affinity to human 5-HT2B agonist site receptor by radioligand displacement assay
pKi: −log10 of the molar value.
REPORTED_METRIC: pKi

Input: // Input: O=C(Cc1ccccc1)NC1CCN(CCCN2C(=O)COc3ccccc32)CC1 . Output its pKi only.
Output: ≤ 6.00

----------
# TARGET_OR_SYSTEM: Substance-P receptor (Homo sapiens)
# Sequence (P25103 whole entry): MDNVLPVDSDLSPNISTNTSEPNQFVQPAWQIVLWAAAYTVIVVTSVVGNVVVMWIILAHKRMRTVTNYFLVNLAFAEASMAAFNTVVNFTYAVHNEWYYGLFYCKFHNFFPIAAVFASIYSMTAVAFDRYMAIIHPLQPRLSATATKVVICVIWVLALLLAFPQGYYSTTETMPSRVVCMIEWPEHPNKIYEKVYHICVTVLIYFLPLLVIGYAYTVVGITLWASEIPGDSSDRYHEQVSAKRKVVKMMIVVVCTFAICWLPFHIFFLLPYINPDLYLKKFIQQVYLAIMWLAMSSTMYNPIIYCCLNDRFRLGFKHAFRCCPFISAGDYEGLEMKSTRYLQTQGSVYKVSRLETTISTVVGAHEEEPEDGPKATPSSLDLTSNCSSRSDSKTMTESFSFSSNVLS
pKi: −log10 of the molar value.
REPORTED_METRIC: pKi

Input: Enter pKi (test system Substance-P receptor (Homo sapiens)) for O=C(Cc1ccccc1)NC1CCN(CCCN2C(=O)COc3ccccc32)CC1
Output: ≤ 6.00

----------
# TARGET_OR_SYSTEM: Kappa-type opioid receptor (Homo sapiens, UniProt P41145)
# Sequence (P41145 whole entry): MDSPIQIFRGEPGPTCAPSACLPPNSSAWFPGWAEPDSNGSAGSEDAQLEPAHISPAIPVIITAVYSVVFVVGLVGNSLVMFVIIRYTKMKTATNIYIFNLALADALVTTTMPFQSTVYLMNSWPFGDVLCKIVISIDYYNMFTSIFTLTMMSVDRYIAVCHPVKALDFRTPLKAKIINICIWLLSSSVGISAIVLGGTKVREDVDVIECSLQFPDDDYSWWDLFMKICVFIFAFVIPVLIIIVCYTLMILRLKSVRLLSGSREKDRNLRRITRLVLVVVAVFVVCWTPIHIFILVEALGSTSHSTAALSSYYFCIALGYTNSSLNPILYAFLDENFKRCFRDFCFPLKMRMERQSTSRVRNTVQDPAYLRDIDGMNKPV
REPORTED_METRIC: Ki

Input: Enter Ki (test system Kappa-type opioid receptor (Homo sapiens, UniProt P41145)) for O=C(Cc1ccccc1)NC1CCN(CCCN2C(=O)COc3ccccc32)CC1
Output: ≥ 1000 nM

----------
# TARGET_OR_SYSTEM: Alpha-1A adrenergic receptor (Homo sapiens)
# Sequence (P35348 whole entry): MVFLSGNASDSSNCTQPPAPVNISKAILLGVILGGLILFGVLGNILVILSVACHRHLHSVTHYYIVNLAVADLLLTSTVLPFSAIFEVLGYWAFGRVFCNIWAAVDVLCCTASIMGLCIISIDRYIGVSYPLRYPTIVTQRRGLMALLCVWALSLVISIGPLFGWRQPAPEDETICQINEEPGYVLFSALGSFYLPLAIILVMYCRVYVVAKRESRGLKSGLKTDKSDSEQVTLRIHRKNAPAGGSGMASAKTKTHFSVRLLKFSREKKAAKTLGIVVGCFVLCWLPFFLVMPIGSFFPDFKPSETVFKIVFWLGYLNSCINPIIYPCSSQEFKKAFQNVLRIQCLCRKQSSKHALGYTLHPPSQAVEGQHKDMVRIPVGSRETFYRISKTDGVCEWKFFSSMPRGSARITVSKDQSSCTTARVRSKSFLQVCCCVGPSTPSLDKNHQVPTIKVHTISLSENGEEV
REPORTED_METRIC: pKi
To interpret pKi, take it as minus log10 of a concentration measured in moles per litre.

{"QUERY_SMILES": "O=C(Cc1ccccc1)NC1CCN(CCCN2C(=O)COc3ccccc32)CC1", "pKi": 6.59}

API: the following record is the query input.
Input: // Input: Cc1ccccc1CN1CCC(N2CCC(n3c(=O)[nH]c4ccccc43)CC2)CC1 . Output its pKi only.
Output: 7.96

----------
# EXPERIMENT_SUMMARY: Tmax in rat plasma at 2 mg/kg, po
# Format: ADME, organism-based
# Design: dose 2 mg/kg, route oral
REPORTED_METRIC: Tmax (min)
Give just the number in min; leave the unit off.

Input: // Input: O=C(Cc1ccccc1)NC1CCN(CCCN2C(=O)COc3ccccc32)CC1 . Output its Tmax only.
Output: 48

----------
# TARGET_OR_SYSTEM: Adenosine receptor A1 (Homo sapiens, UniProt P30542)
# Sequence (P30542 whole entry): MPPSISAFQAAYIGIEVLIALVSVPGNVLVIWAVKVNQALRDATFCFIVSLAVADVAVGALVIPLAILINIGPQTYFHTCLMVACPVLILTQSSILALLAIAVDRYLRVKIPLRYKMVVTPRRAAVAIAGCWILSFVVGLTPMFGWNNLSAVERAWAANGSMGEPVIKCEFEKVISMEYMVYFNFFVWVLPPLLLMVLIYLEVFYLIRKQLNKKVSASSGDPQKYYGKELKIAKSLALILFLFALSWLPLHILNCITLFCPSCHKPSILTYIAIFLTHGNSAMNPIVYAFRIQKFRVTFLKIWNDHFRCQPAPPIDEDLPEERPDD
# EXPERIMENT_SUMMARY: Binding affinity to human adenosine A1 receptor by radioligand displacement assay
pKi: −log10 of the molar value.
REPORTED_METRIC: pKi

Input: // Input: O=C(Cc1ccccc1)NC1CCN(CCCN2C(=O)COc3ccccc32)CC1 . Output its pKi only.
Output: ≤ 6.00

----------
# TARGET_OR_SYSTEM: Melanocortin receptor 4 (Homo sapiens, UniProt P32245)
# Sequence (P32245 whole entry): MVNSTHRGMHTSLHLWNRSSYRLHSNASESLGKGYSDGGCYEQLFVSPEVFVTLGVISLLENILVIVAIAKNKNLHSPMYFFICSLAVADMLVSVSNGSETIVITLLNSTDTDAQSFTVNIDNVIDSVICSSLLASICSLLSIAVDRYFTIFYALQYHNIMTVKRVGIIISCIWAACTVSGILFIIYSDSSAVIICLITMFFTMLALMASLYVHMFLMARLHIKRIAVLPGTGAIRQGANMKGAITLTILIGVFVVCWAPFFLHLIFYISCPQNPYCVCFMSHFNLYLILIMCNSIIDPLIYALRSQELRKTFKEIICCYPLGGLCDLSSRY
REPORTED_METRIC: Ki

Input: // Input: O=C(Cc1ccccc1)NC1CCN(CCCN2C(=O)COc3ccccc32)CC1 . Output its Ki only.
Output: ≥ 1000 nM

----------
# TARGET_OR_SYSTEM: Histamine H1 receptor (Homo sapiens, UniProt P35367)
# Sequence (P35367 whole entry): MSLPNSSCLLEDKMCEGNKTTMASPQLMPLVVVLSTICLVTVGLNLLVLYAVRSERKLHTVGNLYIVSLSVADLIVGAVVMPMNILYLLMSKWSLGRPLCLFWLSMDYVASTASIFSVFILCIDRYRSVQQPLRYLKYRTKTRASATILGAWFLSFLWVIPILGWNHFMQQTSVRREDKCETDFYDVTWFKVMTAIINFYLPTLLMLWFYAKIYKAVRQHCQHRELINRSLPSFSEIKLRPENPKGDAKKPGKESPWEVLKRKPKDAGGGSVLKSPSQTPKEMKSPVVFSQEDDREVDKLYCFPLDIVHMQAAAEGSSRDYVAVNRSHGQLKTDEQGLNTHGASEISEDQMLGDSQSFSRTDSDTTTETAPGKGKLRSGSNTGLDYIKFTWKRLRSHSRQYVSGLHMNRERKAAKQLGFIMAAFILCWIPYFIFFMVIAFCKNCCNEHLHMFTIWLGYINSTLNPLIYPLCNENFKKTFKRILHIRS
# EXPERIMENT_SUMMARY: Binding affinity to human histamine H1 receptor by radioligand displacement assay
REPORTED_METRIC: Ki (µM)
Give just the number in µM; leave the unit off.

Input: // Input: O=C(Cc1ccccc1)NC1CCN(CCCN2C(=O)COc3ccccc32)CC1 . Output its Ki only.
Output: 0.78

----------
# TARGET_OR_SYSTEM: Mitogen-activated protein kinase 14 (Homo sapiens)
# Sequence (Q16539 whole entry): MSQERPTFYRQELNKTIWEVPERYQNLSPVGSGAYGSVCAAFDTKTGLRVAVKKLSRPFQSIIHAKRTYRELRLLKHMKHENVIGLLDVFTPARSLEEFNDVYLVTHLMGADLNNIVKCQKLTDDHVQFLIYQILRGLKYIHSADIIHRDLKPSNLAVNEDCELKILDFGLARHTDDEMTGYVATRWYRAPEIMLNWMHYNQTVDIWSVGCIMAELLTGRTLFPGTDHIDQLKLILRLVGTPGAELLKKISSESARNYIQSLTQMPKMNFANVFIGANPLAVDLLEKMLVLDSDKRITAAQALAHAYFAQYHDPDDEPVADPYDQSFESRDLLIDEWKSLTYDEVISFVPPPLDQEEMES
# EXPERIMENT_SUMMARY: Binding affinity to p38alpha by enzyme assay
REPORTED_METRIC: Ki

Input: // Input: O=C(Cc1ccccc1)NC1CCN(CCCN2C(=O)COc3ccccc32)CC1 . Output its Ki only.
Output: ≥ 1000 nM

----------
Protein target, amino acids: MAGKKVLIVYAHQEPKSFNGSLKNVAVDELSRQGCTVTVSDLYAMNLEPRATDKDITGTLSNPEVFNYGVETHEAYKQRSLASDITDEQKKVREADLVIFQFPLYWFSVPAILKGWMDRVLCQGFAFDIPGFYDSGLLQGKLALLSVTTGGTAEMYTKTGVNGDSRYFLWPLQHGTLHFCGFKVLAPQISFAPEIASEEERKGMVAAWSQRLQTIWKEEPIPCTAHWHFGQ
REPORTED_METRIC: Ki

Input: // Input: O=C(Cc1ccccc1)NC1CCN(CCCN2C(=O)COc3ccccc32)CC1 . Output its Ki only.
Output: ≥ 1 µM

----------
# TARGET_OR_SYSTEM: D(2) dopamine receptor (Homo sapiens, UniProt P14416)
# Sequence (P14416 whole entry): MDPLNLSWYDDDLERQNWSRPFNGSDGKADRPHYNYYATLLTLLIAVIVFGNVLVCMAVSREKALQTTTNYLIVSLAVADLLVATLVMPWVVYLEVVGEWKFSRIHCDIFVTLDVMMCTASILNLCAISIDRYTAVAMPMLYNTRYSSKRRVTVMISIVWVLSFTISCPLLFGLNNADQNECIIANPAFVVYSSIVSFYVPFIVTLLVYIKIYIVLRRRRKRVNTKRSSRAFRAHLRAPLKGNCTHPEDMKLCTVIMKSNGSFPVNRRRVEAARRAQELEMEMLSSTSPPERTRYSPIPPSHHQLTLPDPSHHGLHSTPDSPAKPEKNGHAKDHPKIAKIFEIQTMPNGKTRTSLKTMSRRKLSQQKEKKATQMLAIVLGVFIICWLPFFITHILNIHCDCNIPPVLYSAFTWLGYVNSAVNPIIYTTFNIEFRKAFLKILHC
# EXPERIMENT_SUMMARY: Binding affinity to human dopamine D2S receptor by radioligand displacement assay
REPORTED_METRIC: Ki

Input: // Input: O=C(Cc1ccccc1)NC1CCN(CCCN2C(=O)COc3ccccc32)CC1 . Output its Ki only.
Output: ≥ 1000 nM

----------
# TARGET_OR_SYSTEM: Muscarinic acetylcholine receptor M1 (Homo sapiens) (UniProt P11229)
# EXPERIMENT_SUMMARY: Agonist activity at human muscarinic M1 receptor expressed in CHO-K1 cells assessed as increase of acetylcholine-induced calcium flux by FLIPR assay relative to acetylcholine
# Type: functional, cell-based
Kindly apply the following: class 1 if Emax is less than 80%, class 0 in every other case.

# count of solved cases: 4
{"QUERY_SMILES": "Cc1ccccc1CN1CCC(N2CCC(n3c(=O)[nH]c4ccccc43)CC2)CC1", "ANSWER_LABEL": "class 0"}
{"QUERY_SMILES": "CCC(=O)NC1CCN(CCCN2C(=O)CCc3cc(F)c(F)cc32)CC1", "ANSWER_LABEL": "class 0"}
{"QUERY_SMILES": "CCC(=O)NC1CCN(CCCN2C(=O)CCc3ccc(F)cc32)CC1", "ANSWER_LABEL": "class 0"}
{"QUERY_SMILES": "O=C(CCc1ccccc1)NC1CCN(CCCN2C(=O)COc3ccccc32)CC1", "ANSWER_LABEL": "class 1"}

We now examine a further molecule.
Input: Would you kindly verify if Emax of O=C(Cc1ccccc1)NC1CCN(CCCn2c(=O)oc3ccccc32)CC1 is strictly less than 80%?
Output: class 1
